- test-description: Plasma protein binding in rat
- Format: ADME, cell-free
- condition-set: read-out: PPB (converted)
measurement-type: fraction unbound

>  <smiles-data>
O=C1N=C(Nc2cccc(C(F)(F)F)c2)S/C1=C\c1cccnc1

>  <measurement-type>
fraction unbound

>  <test-value>
0.034

$$$$

----------
- Species on record: Homo sapiens
- test-description: Stability in human plasma for 30 mins

>  <smiles-data>
O=C1N=C(Nc2cccc(C(F)(F)F)c2)S/C1=C\c1cccnc1

>  <remaining at 0.5 h>
> 99%

$$$$

----------
- system-under-test: Cannabinoid receptor 1 (Homo sapiens, UniProt P21554)
- Sequence (P21554 whole entry): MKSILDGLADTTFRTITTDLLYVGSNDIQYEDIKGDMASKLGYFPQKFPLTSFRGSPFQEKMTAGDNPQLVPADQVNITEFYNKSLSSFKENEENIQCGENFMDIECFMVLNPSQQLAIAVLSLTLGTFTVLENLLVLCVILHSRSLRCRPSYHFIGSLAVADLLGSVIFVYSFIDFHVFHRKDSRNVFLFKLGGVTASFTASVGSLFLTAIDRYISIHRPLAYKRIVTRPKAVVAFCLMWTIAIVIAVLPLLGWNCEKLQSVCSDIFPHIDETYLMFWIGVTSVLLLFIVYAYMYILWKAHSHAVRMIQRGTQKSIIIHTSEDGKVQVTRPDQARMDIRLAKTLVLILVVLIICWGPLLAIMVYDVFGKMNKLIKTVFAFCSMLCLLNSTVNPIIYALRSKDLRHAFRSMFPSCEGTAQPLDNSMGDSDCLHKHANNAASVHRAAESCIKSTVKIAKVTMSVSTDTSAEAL
- test-description: Inhibition of human CB1 receptor expressed in CHOK1 cells by luciferase reporter gene assay
- Type: cell-based
- Set-up: concentration or dose not given beside the values
- condition-set: CHO-K1, concentration not given here
Reported inhibition is given for each of the following molecules.
measurement-type: inhibition (%)

>  <smiles-data>
CCOC(=O)c1c(NC(=O)Cc2ccccc2)sc2c1CCN(C(=O)OCC)C2

>  <units>
%

>  <test-value>
94

$$$$
>  <smiles-data>
Cc1ccc(-n2nc3c(c2NC(=O)c2ccco2)CS(=O)(=O)C3)c(C)c1

>  <units>
%

>  <test-value>
90

$$$$
>  <smiles-data>
COC(=O)c1ccc([C@@H]2CC(=O)N3C(=C2C#N)SC[C@]3(O)c2ccc(C)cc2)cc1

>  <units>
%

>  <test-value>
83

$$$$
>  <smiles-data>
O=C(NC[C@@H]1CCCO1)c1nc(-c2ccc(Cl)cc2)n2c1CCCCC2

>  <units>
%

>  <test-value>
63

$$$$
>  <smiles-data>
COC(=O)c1cc(S(=O)(=O)N2CCn3c2nc2ccccc23)c[nH]1

>  <units>
%

>  <test-value>
102

$$$$
